- test-name: NCI Yeast Anticancer Drug Screen. Data for the mlh1 rad18 strain (AID 175)
- study-conditions: S. cerevisiae mlh1 rad18 strain growth inhibition; at 50.0 µM (retest, dose inferred, filed as 5.0); active compounds read high
The panel holds about 79,000 compounds, 15% with a hit somewhere; the sample as a whole holds those more often.
Classify by measured growth inhibition: Met if it is equal to or exceeds 70%, Not met if it is smaller.

Record excerpt, results attached:
1) COC(=O)/C(C(C)=O)=C(\OC(C)=O)c1ccc(OC)c(OC)c1 : Met
2) CN(C(=O)C(Cl)Cl)c1ccc(-c2csc(-c3ccccc3)n2)cc1 : Not met
3) O=C(Cc1ccccc1)NNc1nc(NNC(=O)c2ccncc2)nc(Nc2ccccc2)n1 : Not met
4) Cc1cc(O)c(C)c(C)c1N=Nc1ccccc1 : Not met
5) O=C(Nc1ccc(C(F)(F)F)cc1[N+](=O)[O-])C(=O)C(C(=O)c1ccc2ccccc2c1)C1OC(=O)c2ccccc21 (stereo not drawn) : Not met
6) CCCCCCCC[N+](C)(C)Cc1ccc(C[N+](C)(C)CCCCCCCC)cc1 : Not met
7) O=c1c(Cl)c(Cl)oc(Cl)c1Cl : Met
8) Nc1cc(F)c2c(c1F)C(=O)c1cc(F)ccc1-2 : Met
9) O=C(O)CC(NC(=O)CP(=O)(O)O)C(=O)O.[NH-]C1CCCCC1[NH-].[Pt+2] (stereo not drawn) : Not met
10) COc1ccc(/C(Cl)=C(\C=O)c2ccc(Cl)cc2)cc1 : Not met

Exercise: Identify whether the reported growth inhibition of the following compound is 70% or greater: CCCc1cc(-c2ccc(O)c(CCC)c2)ccc1O
Key: Met

Exercise: Identify whether the reported growth inhibition of the following compound is 70% or greater: O=C1OC2(CCCCC2)OC(=O)C1=Cc1ccc([N+](=O)[O-])s1
Key: Met

Exercise: Identify whether the reported growth inhibition of the following compound is 70% or greater: CC1CCN(CCOC(=O)C(c2ccccc2)C2C=CCCC2)C1 (stereo not drawn)
Key: Met

Exercise: Identify whether the reported growth inhibition of the following compound is 70% or greater: CCNc1cc(SC)nc(N)n1
Key: Not met

Exercise: Identify whether the reported growth inhibition of the following compound is 70% or greater: CC1(C)C(=O)N(CCCCCCN2C(=O)C(C)(C)c3ccccc32)c2ccccc21
Key: Not met

Exercise: Identify whether the reported growth inhibition of the following compound is 70% or greater: C[N+]1=C(/C=C\c2ccc(O)c3ccccc23)C(C)(C)c2ccccc21
Key: Met

Exercise: Identify whether the reported growth inhibition of the following compound is 70% or greater: CC(c1ccc(OCc2ccccc2)cc1)c1cc2c(cc1OCCO)OCO2 (stereo not drawn)
Key: Not met

Exercise: Identify whether the reported growth inhibition of the following compound is 70% or greater: C/C(=N/NC(=S)Nc1cccc(C)c1)c1ccccn1
Key: Met

Exercise: Identify whether the reported growth inhibition of the following compound is 70% or greater: C[C@]12CC[C@H](O)CC1=CC[C@@H]1C2CC[C@]2(C)NC(=O)CCC12 (stereo partly drawn)
Key: Not met

Exercise: Identify whether the reported growth inhibition of the following compound is 70% or greater: O=c1ccc2c(COc3ccc(Cl)cc3Cl)c3ccc(O)cc3oc-2c1
Key: Not met

Exercise: Identify whether the reported growth inhibition of the following compound is 70% or greater: CCNC1(C2c3ccccc3-c3ccccc32)c2ccccc2-c2ccccc21
Key: Met

Exercise: Identify whether the reported growth inhibition of the following compound is 70% or greater: CC1=NC(c2ccccc2)(C2(c3ccccc3)C(c3ccccc3)=C2c2ccccc2)C(=O)O1 (stereo not drawn)
Key: Not met

====

- test-name: NCI Yeast Anticancer Drug Screen. Data for the cln2 rad14 strain (AID 165);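 further: 0% = growth equal to vehicle treated cultures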
- study-conditions: S. cerevisiae cln2 rad14 strain, at 50.0 µM, active compounds read high
The panel holds about 79,000 compounds, 15% with a hit somewhere; the sample as a whole holds those more often.
Classify by measured growth inhibition: Yes if it is equal to or exceeds 50%, No if it is smaller.

Record excerpt, results attached:
1) CCCCC(O)(c1ccc2nc(NC(=O)OC)[nH]c2c1)c1cccs1 (stereo not drawn) : No
2) Cc1ccc(C(CN(C)C)C(=O)c2ccccc2)cc1C (stereo not drawn) : No
3) O=C(/C=C/c1ccccc1)CCN1CCC2CCC(C2)C1 (stereo not drawn) : No
4) CCN(CC)CCC(=O)/C=C/c1ccc(Cl)c(Cl)c1 : Yes
5) COc1ccc(-c2nc3c(C(=O)NCCN(C)C)cccc3c3ccccc23)cc1 : No

Exercise: Identify whether the reported growth inhibition of the following compound is 50% or greater: CCCCCCCCCC(=O)CC(=O)c1c(O)cccc1O
Key: Yes

Exercise: Identify whether the reported growth inhibition of the following compound is 50% or greater: [N-]=[N+]=Nc1c([N+](=O)[O-])c(=O)n(-c2ccccc2)c2ccccc12
Key: No

Exercise: Identify whether the reported growth inhibition of the following compound is 50% or greater: CC(=O)Nc1cccc(Oc2ccc(Br)cc2[N+](=O)[O-])c1
Key: No

Exercise: Identify whether the reported growth inhibition of the following compound is 50% or greater: CCc1ccccc1NC(=O)C(=O)C(C#N)c1c(Cl)cccc1Cl (stereo not drawn)
Key: No

Exercise: Identify whether the reported growth inhibition of the following compound is 50% or greater: Oc1cc(Cl)cc2cc(Cl)cnc12
Key: Yes

====

- test-name: NCI Yeast Anticancer Drug Screen. Data for the mec2-1 strain (AID 157)
- study-conditions: S. cerevisiae mec2-1 strain, at 50.0 µM, active compounds read high
Compounds without any hit were thinned out: in the full panel of roughly 79,000, 15% have a hit.
Provide the recorded growth inhibition for the entries that follow.
Give bare numbers, in %.

Consider the worked cases shown below.
1) ClC/C=C/c1ccccc1 : 16.9
2) COc1cccc2c1[n+]([O-])c1cccc(O)c1[n+]2[O-] : 90.4
3) CCOC(=O)N/N=C/c1ccc(N(C)CCC#N)cc1 : -26.9
4) Clc1ccc(CN2COc3c(cc(Cl)c4cccnc34)C2)cc1Cl : 97.5
5) COc1ccc2c(c1)CC/C(=C\c1ccc(OCCN(C)C)cc1)C2=O : 48.8

Quick request: growth inhibition for each listed item, please.
1. CC1CCN(SSc2nc3ccccc3s2)CC1
2. Cc1ccc(/C=N\NC(=S)N/N=C/c2ccc(C)cc2)cc1
3. CCOc1ccc(/C=C2\NC(=S)N(/C=C3\C(=O)Oc4ccccc4C3=O)C2=O)cc1
4. COc1ccc2c(c1)CC[C@@H]1[C@@H]2CC[C@]2(C)/C(=N/OCCN3CCCC3)CC[C@@H]12
5. C=CC(=O)N1C/C(=C\c2ccc([N+](=O)[O-])cc2)C(=O)/C(=C/c2ccc([N+](=O)[O-])cc2)C1
6. CCCCCCCCCCCCCC(=O)NO

Key:
1: 80.5; 2: 40; 3: -28.6; 4: 91.8; 5: 51.5; 6: 91.3

====

Provide the recorded growth inhibition for the entries that follow.
- test-name: NCI Yeast Anticancer Drug Screen. Data for the sgs1 mgt1 strain (AID 161);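 further: 0% = growth of cultures given vehicle only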
- study-conditions: S. cerevisiae sgs1 mgt1 strain, at 50.0 µM (retest, dose inferred, filed as 5.0), active compounds read high
About 79,000 compounds went through this panel and 15% of them were active in at least one assay; those are over-represented in the sample as a whole.
Give bare numbers, in %.

Consider the worked cases shown below.
1. COC(=O)c1c(COC(=O)NC(C)C)c2n(c1C)CS(=O)(=O)C2 : 31
2. COC(=O)C(=[N+]=[N-])C(=O)c1ccc(Cl)cc1 : 40
3. O=[N+]([O-])c1ccc(CCCCc2ccc([N+](=O)[O-])cc2)cc1 : -9
4. COc1ccc2c(C)cc(N/N=C/c3cccc(C)n3)nc2c1 : 28
5. Cn1cnc([N+](=O)[O-])c1Sc1ccc(Cl)cc1 : 98
6. CC(C)NC(=O)CN1C(=O)NC(C)(c2ccccc2)C1=O (stereo not drawn) : 11
7. CC[C@@]1(OP(=O)(O)O)C(=O)OCc2c1cc1n(c2=O)Cc2cc3ccccc3nc2-1 : -37
8. COc1ccccc1/C=C1\NC(=S)N(/C=C2\C(=O)Oc3ccccc3C2=O)C1=O : 38
9. Cc1cccc2c1C(=O)N(CC[P+](c1ccccc1)(c1ccccc1)c1ccccc1)C2=O : 93
10. Nc1nn2c(C(Br)Br)cc(C(Br)Br)nc2c1[N+](=O)[O-] : 100

Quick request: growth inhibition for each listed item, please.
1. O=C(C(=S)c1ccccc1)N(Cc1ccccc1)Cc1ccccc1
2. O=C1C=CC(=O)N1c1ccc(-c2nc3ccccc3o2)cc1

Key:
48
96

====

- test-name: NCI Yeast Anticancer Drug Screen. Data for the sgs1 mgt1 strain (AID 161);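 further: 0% = growth of cultures given vehicle only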
- study-conditions: S. cerevisiae sgs1 mgt1 strain, at 50.0 µM
- Experimental: Growth inhibition of yeast strains with defined genetic alterations is measured as a screen for potential anti-cancer activity. Selected strains with alterations in DNA damage repair or cell cycle control were exposed to compounds and growth inhibition was measured relative to vehicle treated controls. The strain used in this assay is sgs1 mgt1
Compounds without any hit were thinned out: in the full panel of roughly 79,000, 15% have a hit. Activity calls are given as the source filed them. Rule as the data show it: active = growth inhibition above about 70%; inactive = the rest.
A correct response names exactly one class from active, inactive

Record excerpt, results attached:
1. CCN(CC)CCCC(C)Nc1cc(C)nc2c1ccc1c2ccc2c(NC(C)CCCN(CC)CC)cc(C)nc21 (centres undefined) : inactive
2. O=C1CC(O)C=C1Nc1ccc(Cl)cc1 (centres undefined) : active
3. Cc1cc(C(O)(C(F)(F)F)C(F)(F)F)c(I)c(C(O)(C(F)(F)F)C(F)(F)F)c1 : active
4. O=C(/C=C/c1ccc([N+](=O)[O-])o1)N1CCN(Cc2ccccc2)CC1 : active

Exercise: Per the records of this test, what outcome belongs to Cc1ncc(Br)c(C(=O)O)n1 ?
Key: inactive

Exercise: Per the records of this test, what outcome belongs to Clc1ccccc1/C=C/c1ccccn1 ?
Key: active

Exercise: Per the records of this test, what outcome belongs to CCCCC(CC)CNc1ncnc2c1cnn2C (centres undefined) ?
Key: active

Exercise: Per the records of this test, what outcome belongs to Fc1ccc(NC(=S)SCc2ccc(Cl)c(Cl)c2)c(F)c1 ?
Key: active
